Data credit: BindingDB's records for doi:10.1016/j.ejphar.2003.10.049

Biological target: Kappa-type opioid receptor (Rattus norvegicus, UniProt P34975)
Sequence (P34975 whole entry): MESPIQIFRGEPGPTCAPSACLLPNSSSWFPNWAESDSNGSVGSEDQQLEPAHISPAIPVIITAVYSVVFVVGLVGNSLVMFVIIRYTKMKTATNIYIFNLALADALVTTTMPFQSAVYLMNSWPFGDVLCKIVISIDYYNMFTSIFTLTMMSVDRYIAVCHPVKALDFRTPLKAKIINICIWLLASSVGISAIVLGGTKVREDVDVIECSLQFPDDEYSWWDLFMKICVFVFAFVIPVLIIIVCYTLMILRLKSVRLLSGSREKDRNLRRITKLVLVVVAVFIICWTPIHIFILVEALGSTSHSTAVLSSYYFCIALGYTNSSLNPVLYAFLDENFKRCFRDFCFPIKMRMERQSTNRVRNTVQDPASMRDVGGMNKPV
# note: boundary value 100 nM maps to false; Ki below it maps to true

                                   compound  class_label
0  COC12CC[C@@H](N[C@H](Cc3ccccc3)C(=O)O)[C@@H]3Oc4c(O)ccc5c4[C@@]31CCN(C)C2C5 (stereo not given in full)        false
1  COC12CC[C@H](N[C@H](Cc3ccccc3)C(=O)O)[C@@H]3Oc4c(O)ccc5c4[C@@]31CCN(C)C2C5 (stereo not given in full)         true
2  CCO[C@@]12Cc3c([nH]c4ccccc34)[C@]3(C)Oc4c(O)ccc5c4[C@@]31CCN(CC1CC1)C2C5        false
3  COC12CC[C@H](N[C@H](C)C(=O)O)[C@@H]3Oc4c(O)ccc5c4[C@@]31CCN(C)C2C5 (stereo not given in full)        false
4  COC12CC[C@@H](N[C@H](C)C(=O)O)[C@@H]3Oc4c(O)ccc5c4[C@@]31CCN(C)C2C5 (stereo not given in full)         true

----------
Biological target: Delta-type opioid receptor (Rattus norvegicus)
Sequence (P33533 whole entry): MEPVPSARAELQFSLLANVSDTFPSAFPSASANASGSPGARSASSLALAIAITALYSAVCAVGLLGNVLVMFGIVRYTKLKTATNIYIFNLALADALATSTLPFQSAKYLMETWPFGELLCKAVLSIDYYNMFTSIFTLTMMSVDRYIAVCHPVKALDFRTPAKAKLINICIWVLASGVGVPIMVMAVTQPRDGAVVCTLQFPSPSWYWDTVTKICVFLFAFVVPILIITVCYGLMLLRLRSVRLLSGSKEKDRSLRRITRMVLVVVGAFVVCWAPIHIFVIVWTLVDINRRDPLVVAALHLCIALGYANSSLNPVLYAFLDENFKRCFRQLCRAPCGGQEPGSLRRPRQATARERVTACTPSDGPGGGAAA
assay.endpoint: Ki

>>> print(df.to_string())
                                   compound                                    target   result
0  COC12CC[C@@H](N[C@H](C)C(=O)O)[C@@H]3Oc4c(O)ccc5c4[C@@]31CCN(C)C2C5 (stereo partly drawn)  Delta-type opioid receptor (Rattus norvegicus)  7.71 nM
1  COC12CC[C@@H](N[C@H](Cc3ccccc3)C(=O)O)[C@@H]3Oc4c(O)ccc5c4[C@@]31CCN(C)C2C5 (stereo partly drawn)  Delta-type opioid receptor (Rattus norvegicus)  1.03 nM
2  COC12CC[C@H](N[C@H](C)C(=O)O)[C@@H]3Oc4c(O)ccc5c4[C@@]31CCN(C)C2C5 (stereo partly drawn)  Delta-type opioid receptor (Rattus norvegicus)  26.9 nM
